Target: T1, mouse folate receptor alpha (mFRα), recombinant protein (mouse, UniProt P35846 25-232)
T1 construct: Bought recombinant proteins (e.g. biotinylated, Acro Biosystems FO1-M82E9); also called mFOLR1; Ms FOLR1
T1 sequence (P35846 25-232 limits assumed): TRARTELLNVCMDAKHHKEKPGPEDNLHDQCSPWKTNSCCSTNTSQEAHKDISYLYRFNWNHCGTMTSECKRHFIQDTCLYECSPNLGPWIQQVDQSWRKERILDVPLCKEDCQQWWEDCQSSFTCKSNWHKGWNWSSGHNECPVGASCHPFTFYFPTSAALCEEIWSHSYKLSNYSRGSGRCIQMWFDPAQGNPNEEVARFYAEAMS
Test: BLI, Avi-biotinylated FRα
readout: koff (s⁻¹)

Please review the following examples before continuing.
binder	obsValue
P01500059: P01500001(G26E, D72E)-FLAG3-HIS6 (VHH, also called P0150059) VHH: EVQLVESGGGLVQPGGSLRLSCAASESGFSGMIMGWYRQAPGKQRELVATVTSHGTTNYADSVKGRFTISRENAKNTVYLQMNSLRPEDTAVYYCNAHFPGIYWGKGTLVTVSS	0.000292
P01500055: P01500001(V51R, D72E, N73G)-FLAG3-HIS6 (VHH, also called P0150055) VHH: EVQLVESGGGLVQPGGSLRLSCAASGSGFSGMIMGWYRQAPGKQRELVATRTSHGTTNYADSVKGRFTISREGAKNTVYLQMNSLRPEDTAVYYCNAHFPGIYWGKGTLVTVSS	2.4e-05
P01500049: P01500001(G26E)-FLAG3-HIS6 (VHH, also called P0150049) VHH: EVQLVESGGGLVQPGGSLRLSCAASESGFSGMIMGWYRQAPGKQRELVATVTSHGTTNYADSVKGRFTISRDNAKNTVYLQMNSLRPEDTAVYYCNAHFPGIYWGKGTLVTVSS	0.000826
P01500045: P01500001(G26E, I33L)-FLAG3-HIS6 (VHH, also called P0150045) VHH: EVQLVESGGGLVQPGGSLRLSCAASESGFSGMLMGWYRQAPGKQRELVATVTSHGTTNYADSVKGRFTISRDNAKNTVYLQMNSLRPEDTAVYYCNAHFPGIYWGKGTLVTVSS	0.00036
P01500006: 2HF042(Q1E, Q5V, A14P, V40A, L79Y, K83R, Q108L)-FLAG3-HIS6 (VHH, Entry includes the tags; also called P0150006) VHH: EVQLVESGGGLVQPGGSLRLSCAASGSGFSGMIMGWYRQAPGKQRELVATVTSHGTTNYADSVKGRFTISRDNAKNTVYLQMNSLRPEDTAVYYCNAHFPGIYWGKGTLVTVSS	0.00189

A. P01500043: P01500001(G28T, I33L, D72E)-FLAG3-HIS6 (VHH, also called P0150043) VHH: EVQLVESGGGLVQPGGSLRLSCAASGSTFSGMLMGWYRQAPGKQRELVATVTSHGTTNYADSVKGRFTISRENAKNTVYLQMNSLRPEDTAVYYCNAHFPGIYWGKGTLVTVSS
B. P01500042: P01500001(G28T, S30I)-FLAG3-HIS6 (VHH, also called P0150042) VHH: EVQLVESGGGLVQPGGSLRLSCAASGSTFIGMIMGWYRQAPGKQRELVATVTSHGTTNYADSVKGRFTISRDNAKNTVYLQMNSLRPEDTAVYYCNAHFPGIYWGKGTLVTVSS
C. P01500056: P01500001(I33L, D72P, N73G)-FLAG3-HIS6 (VHH, also called P0150056) VHH: EVQLVESGGGLVQPGGSLRLSCAASGSGFSGMLMGWYRQAPGKQRELVATVTSHGTTNYADSVKGRFTISRPGAKNTVYLQMNSLRPEDTAVYYCNAHFPGIYWGKGTLVTVSS
Req: # rank by koff, ascending (min first) Respond with the label ranking, as requested.
Resp: C, A, B
